compounds and their reported growth
test system: LOX IMVI melanoma; assay: NCI-60 one-dose screen, 48 h (100 = growth as untreated, 0 = no growth, -100 = all killed); details: 10 µM unless noted
The panel holds about 83,000 compounds, 20% with a hit somewhere; the sample as a whole holds those more often.

- compound: "COc1cc2oc(-c3cccc(C(=O)Nc4ccc(Br)cc4)c3)cc(=O)c2c(OC)c1OC"
  growth / %: -20.9
- compound: "c1ccc(-c2cn3c(ccc4ccccc43)n2)cc1"
  growth / %: 52.3
- compound: "CNCCOc1nc2c3cnccc3cc(-c3cc(OC)c(OC)c(OC)c3)c2c2ccncc12"
  growth / %: -46.8
- compound: "O=C(c1nc2ccccc2[nH]1)C1C(c2ccc(Cl)cc2)C2CC3CCCC[C@H]3N2[C@@]12C(=O)Nc1cc(Cl)ccc12 (some centres undefined)"
  growth / %: 35
- compound: "Cc1ccc(/C=C(/C#N)n2nnc3cccc(F)c32)cc1"
  growth / %: -14.7
- compound: "COc1ccc(/C=C/c2nc(Nc3ccc(S(=O)(=O)Nc4cc(C)on4)cc3)c3ccccc3n2)cc1"
  growth / %: 31.5
- compound: "O=C1c2cccc3c(-c4ccc5c(c4)ncn5C4CCCCC4)ccc(c23)C(=O)N1CCO"
  growth / %: 87.4
- compound: "CCOC(=O)c1cc(C(=O)c2ccc(OC)cc2)n2ccc(/C=C/c3cc[n+](CC(=O)c4ccc(OC)cc4)cc3)cc12"
  growth / %: 25.4
- compound: "O=C1c2c(c3c4cccc(F)c4[nH]c3c3ccc4ccccc4c23)C(=O)N1O"
  growth / %: 18.4
- compound: "C/C(=N\\Nc1cc(C)nc2ccc(Br)cc12)c1ccc([N+](=O)[O-])cc1"
  growth / %: -29.9
- compound: "CCCCCC(=O)Oc1ccc(/C(=C(\\C)c2ccccc2)c2ccc(OCCN3CCCCC3)cc2)cc1"
  growth / %: 84
- compound: "COCc1cnccc1NC1CCCCCC1"
  growth / %: 100
- compound: "N#Cc1c(NC(=O)NCc2ccccc2)sc2c1CCCCC2"
  growth / %: 26.4
- compound: "C=C1C(=O)O[C@H]2[C@H]1CC/C(C(=O)NCCCCCNC(=O)/C1=C/CC[C@@]3(C)O[C@H]3[C@H]3OC(=O)C(=C)[C@@H]3CC1)=C\\CC[C@@]1(C)O[C@@H]21"
  growth / %: 99.9
- compound: "COc1cc2nc(-c3ccc(Cl)cc3)cc(OCCCN3CCOCC3)c2cc1OC"
  growth / %: -56
- compound: "COc1ccc(NC(=O)c2cc(NCc3cc(O)ccc3O)ccc2O)cc1"
  growth / %: 94.3
- compound: "COc1ccc(CCn2cncc2-c2c[nH]c3ccccc23)cc1"
  growth / %: 88.3
- compound: "CC(=O)O[C@H]1Cc2c([nH]c3ccccc23)[C@@H](c2ccc(Cl)cc2)N1C(=O)CCNC(C)(C)C"
  growth / %: 25.6
- compound: "O=C(NCCNc1nccc(-c2c(-c3cccc(F)c3)nc3sccn23)n1)c1ccc(Cl)cc1"
  growth / %: 43.4

###

test system: TK-10 renal; assay: NCI-60 one-dose screen, 48 h (100 = growth as untreated, 0 = no growth, -100 = all killed); conditions: 10 µM unless noted
The panel holds about 83,000 compounds, 20% with a hit somewhere; the sample as a whole holds those more often. Activity calls are given as the source filed them. How the source made its calls: active means growth percent below 10; inactive means the rest.
compounds and their reported growth
property label: growth

- compound: "c1ccc2c(-c3c[nH]c4ccccc34)c3c(cc2c1)[nH]c1ccccc13"
  experimental system: "TK-10 renal"
  property label: "growth"
  result: "94.1% (inactive)"
- compound: "N#CC1=C(N)Oc2c(cnn2-c2ccc([N+](=O)[O-])cc2[N+](=O)[O-])C1c1ccccc1 (centres undefined)"
  experimental system: "TK-10 renal"
  property label: "growth"
  result: "99.4% (inactive)"
- compound: "CCCCOc1ccc(/C(C)=N/Nc2cc(C)nc3ccc(Br)cc23)cc1"
  experimental system: "TK-10 renal"
  property label: "growth"
  result: "112% (inactive)"
- compound: "CN1C(N2CCN(S(=O)(=O)c3ccccc3)CC2)=NS(=O)(=O)c2ccccc21"
  experimental system: "TK-10 renal"
  property label: "growth"
  result: "114% (inactive)"
- compound: "Cn1cc(CC2CC(=O)N(c3ccccc3)C2=O)sc1=NC(=O)c1ccccc1 (centres undefined)"
  experimental system: "TK-10 renal"
  property label: "growth"
  result: "102% (inactive)"
- compound: "Cn1ccc2c1CC1CN(Cc3ccco3)C(=O)C1C2C(=O)O (centres undefined)"
  experimental system: "TK-10 renal"
  property label: "growth"
  result: "102% (inactive)"
- compound: "COc1ccc(C/C(=C(\\C)c2ccc(OCCN3CCCC3)cc2)c2ccc(OCCN3CCCC3)cc2)cc1"
  experimental system: "TK-10 renal"
  property label: "growth"
  result: "87.3% (inactive)"
- compound: "COc1ccc(/C=C/c2nc(Nc3ccc(S(=O)(=O)Nc4cc(C)on4)cc3)c3ccccc3n2)cc1"
  experimental system: "TK-10 renal"
  property label: "growth"
  result: "71.5% (inactive)"
- compound: "CC(C)(C)c1cc(/C=N/NC(=O)c2ccccc2NC(=O)c2cccs2)c(O)c(C(C)(C)C)c1"
  experimental system: "TK-10 renal"
  property label: "growth"
  result: "28.8% (inactive)"
